Molecular target: human Slack (Homo sapiens)
Construct: host or cells: HEK293
Sequence (Q5JUK3 whole entry): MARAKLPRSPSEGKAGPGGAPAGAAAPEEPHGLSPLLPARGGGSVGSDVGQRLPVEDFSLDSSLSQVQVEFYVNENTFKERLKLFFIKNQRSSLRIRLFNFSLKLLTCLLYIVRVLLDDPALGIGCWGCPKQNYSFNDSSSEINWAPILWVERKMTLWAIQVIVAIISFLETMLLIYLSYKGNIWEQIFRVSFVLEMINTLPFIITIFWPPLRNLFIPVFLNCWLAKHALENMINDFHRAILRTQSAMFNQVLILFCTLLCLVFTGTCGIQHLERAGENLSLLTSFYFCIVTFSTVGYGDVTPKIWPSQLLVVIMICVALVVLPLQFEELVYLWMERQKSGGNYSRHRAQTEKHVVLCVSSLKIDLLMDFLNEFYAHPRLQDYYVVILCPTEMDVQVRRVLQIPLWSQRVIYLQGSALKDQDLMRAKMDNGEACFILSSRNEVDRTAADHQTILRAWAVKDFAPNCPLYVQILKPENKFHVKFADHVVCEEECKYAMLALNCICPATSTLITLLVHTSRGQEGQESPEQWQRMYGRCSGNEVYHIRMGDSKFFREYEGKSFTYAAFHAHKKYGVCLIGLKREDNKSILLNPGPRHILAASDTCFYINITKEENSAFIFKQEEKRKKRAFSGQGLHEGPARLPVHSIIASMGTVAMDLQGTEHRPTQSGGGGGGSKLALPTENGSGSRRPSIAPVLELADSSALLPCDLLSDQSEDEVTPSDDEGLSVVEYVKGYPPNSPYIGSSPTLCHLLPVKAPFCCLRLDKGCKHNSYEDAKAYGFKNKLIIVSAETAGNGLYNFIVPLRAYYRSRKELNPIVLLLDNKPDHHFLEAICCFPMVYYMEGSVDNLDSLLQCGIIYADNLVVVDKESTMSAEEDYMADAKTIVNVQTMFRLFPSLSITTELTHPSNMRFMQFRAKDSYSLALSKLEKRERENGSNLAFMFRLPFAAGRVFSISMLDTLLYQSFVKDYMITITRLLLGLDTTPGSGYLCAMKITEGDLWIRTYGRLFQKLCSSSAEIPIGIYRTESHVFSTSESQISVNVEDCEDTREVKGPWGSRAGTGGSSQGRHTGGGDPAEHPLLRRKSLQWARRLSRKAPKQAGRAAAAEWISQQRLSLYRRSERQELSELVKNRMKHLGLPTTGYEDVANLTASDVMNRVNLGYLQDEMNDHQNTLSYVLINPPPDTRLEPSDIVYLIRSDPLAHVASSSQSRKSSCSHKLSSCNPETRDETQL
Experiment: FluxOR potassium ion channel assay in HEK-Slack cells
Format: cell-based
Details: Na+ free buffer with 2 mM Ca2+, 2 mM Mg2+, 0.03% DMSO; mean with 95% confidence interval; read-out: FluxOR assay EC50
pEC50: −log10 of the molar value.
A collection of molecules and their measured pEC50
EXPERIMENTAL ENDPOINT: pEC50

> print(dat)
                                   molecule  value.observed
1  O=c1nc(CN2CCN(C3=Nc4ccccc4Oc4ccc(Cl)cc43)CC2)[nH][nH]1 [Compound 10]            4.66
2  O=C(O)COCCN1CCN(C2=Nc3ccccc3Oc3ccc(C(F)(F)F)cc32)CC1 [Compound 8]            4.20
3  O=c1nc(CN2CCN(C3=Nc4ccccc4Oc4ccc(C(F)(F)F)cc43)CC2)[nH][nH]1 [Compound 11]            4.97
4  CN1CCN(C2=Nc3ccccc3Oc3ccc(Cl)cc32)CC1 [Loxapine, reference compound]            4.68
5  O=C(O)COCCN1CCCN(C2=Nc3ccccc3Oc3ccc(C(F)(F)F)cc32)CC1 [Compound 9]            4.29
6  CN1CCN(C2=Nc3ccccc3Oc3ccc(C(F)(F)F)cc32)CC1 [Compound 2]            5.20
7  OCCN1CCN(C2=Nc3ccccc3Oc3ccc(Cl)cc32)CC1 [Compound 5]            4.59
8  CN1CCN(C2=Nc3cc(F)ccc3Oc3ccc(C(F)(F)F)cc32)CC1 [Compound 4]            4.38
